Test system: myasthenogenic antibody mAB 198
assay explanation: Peptide microarray mimotope screen, binding of mAB 198 to linear and cyclic peptides (fluorescence readout)
Design: species or system rat
measurement parameters: cyclic mimotopes; binding of mAB 198, relative fluorescent signal after normalization against background
// values below are reported relative signal [%]
parameter: relative signal [%] (%)

{"columns": ["substance", "experimental system", "parameter", "result value"],
 "data": [
  ["150 (NPADYGD) [compound 150]", "myasthenogenic antibody mAB 198", "relative signal [%]", 12.6],
  ["135 (GGSLRGNPADY) [compound 135]", "myasthenogenic antibody mAB 198", "relative signal [%]", 19.6],
  ["119 (GGSLRINPADY) [compound 119]", "myasthenogenic antibody mAB 198", "relative signal [%]", 25.4],
  ["106 (RFNPADY) [compound 106]", "myasthenogenic antibody mAB 198", "relative signal [%]", 37.5],
  ["162 (RIRWNPADY) [compound 162]", "myasthenogenic antibody mAB 198", "relative signal [%]", 11.5],
  ["193 (LRWNPADYPGI) [compound 193]", "myasthenogenic antibody mAB 198", "relative signal [%]", 8.9],
  ["148 (VRLRVNPADYG) [compound 148]", "myasthenogenic antibody mAB 198", "relative signal [%]", 13.4],
  ["178 (VRLRINPADYG) [compound 178]", "myasthenogenic antibody mAB 198", "relative signal [%]", 10.0]
]}
